target: T1, human GLP-1 receptor (human, UniProt P43220 24-463); test: SPA competition vs [125I]-GLP-1, hGLP-1R membranes
T1 construct: whole, on cells; also called hGLP-1R; human glucagon-like peptide-1 receptor
Consider the following binders; for each one, report its pKi.
One number for each entry, as −log10 of the molar value.

Some binders with known pKi results, for comparison:
q: Please give the measured pKi for this binder: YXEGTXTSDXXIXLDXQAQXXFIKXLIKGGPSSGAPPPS (Aib2, αMeF(2F)6, 4Pal10, Aib11, αMeL13, Orn16, Aib20, Orn21, K24(Z1), αMeY25, K28(Z1), C-term NH2; Z1=PEG4-(γ-Glu)-CO-(CH2)12-CO2H)
a: 9.60

q: Could you share which pKi value was measured for YXEGTXTSDXXIXLDXKAQXXFIXXLIEGGPSSGAPPPSK (Aib2, αMeF(2F)6, 4Pal10, Aib11, αMeL13, Orn16, K17(Z1), Aib20, Orn21, D-Glu24, αMeY25, K40(Z1), C-term NH2; Z1=AEEA2-(γ-Glu)-CO-(CH2)10-CH3) ?
a: 10.16

q: Given the binder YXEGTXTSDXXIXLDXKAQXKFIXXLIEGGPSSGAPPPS (Aib2, αMeF(2F)6, 4Pal10, Aib11, αMeL13, Orn16, K17(Z1), Aib20, K21(Z1), D-Glu24, αMeY25, C-term NH2; Z1=AEEA-(γ-Glu)-CO-(CH2)12-CO2H) , what is its reported pKi?
a: 8.73

Batch: pKi for all items listed.
1. YXEGTXTSDXXIXLDXKAQXGFIXXLIKGGPSSGAPPPS (Aib2, αMeF(2F)6, 4Pal10, Aib11, αMeL13, Orn16, K17(Z1), Aib20, D-Glu24 (printed e), αMeY25, K28(Z1), C-term NH2; Z1=AEEA2-(γ-Glu)-CO-(CH2)10-CH3, G at position 21)
2. YXEGTXTSDKXIXLDXKAQXEFIXXLIEGGPSSGAPPPS (Aib2, αMeF(2F)6, K10(Z1), Aib11, αMeL13, Orn16, K17(Z1), Aib20, D-Glu24, αMeY25, C-term NH2; Z1=AEEA3-(γ-Glu)-CO-(CH2)10-CH3)
3. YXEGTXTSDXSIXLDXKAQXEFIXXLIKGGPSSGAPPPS (Aib2, αMeF(2F)6, 4Pal10, αMeL13, Orn16, K17(Z1), Aib20, D-Glu24, αMeY25, K28(Z1), C-term NH2; Z1=AEEA2-(γ-Glu)-CO-(CH2)14-CH3)

a:
1: 9.73; 2: 9.70; 3: 9.60
